- Tested target: CYP2C9 (Homo sapiens, UniProt P11712)
- Construct: from tissue; host or cells: human liver microsomes
- Sequence (P11712 whole entry): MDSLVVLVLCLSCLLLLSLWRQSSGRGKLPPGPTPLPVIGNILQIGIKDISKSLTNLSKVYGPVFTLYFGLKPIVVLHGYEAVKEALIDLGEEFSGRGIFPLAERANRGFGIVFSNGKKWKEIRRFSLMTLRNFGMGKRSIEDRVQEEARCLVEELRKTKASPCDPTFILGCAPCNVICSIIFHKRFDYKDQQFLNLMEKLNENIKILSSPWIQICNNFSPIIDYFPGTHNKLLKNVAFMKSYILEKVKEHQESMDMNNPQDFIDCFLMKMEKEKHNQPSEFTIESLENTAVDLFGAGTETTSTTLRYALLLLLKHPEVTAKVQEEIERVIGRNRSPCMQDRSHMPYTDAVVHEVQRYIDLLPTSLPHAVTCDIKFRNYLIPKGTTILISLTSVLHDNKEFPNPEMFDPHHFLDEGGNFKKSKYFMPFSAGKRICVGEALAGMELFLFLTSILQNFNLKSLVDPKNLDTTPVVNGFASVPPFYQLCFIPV
- Test name: CYP inhibition assay, human liver microsomes, substrate diclofenac
- Format: in vitro ADME
- Details: human liver microsomes, 10 min incubation, LC-MS/MS; read-out: CYP Inhibition Activity (IC50/nM) CYP2C9
Measurement kind: IC50 (nM)
// note: answer is a bare numeric in nM

Would you mind telling me what IC50 value was observed for Cc1ccc(N2CCC(C)(C)CC2)c(NC(=O)c2ccc(C3CCOCC3)o2)c1 ?
14200

Would you mind telling me what IC50 value was observed for O=C(Nc1cc(C(F)(F)F)ccc1N1CCC(O)C1)c1ccc(C2CCOCC2)o1 (racemic) ?
5550

Would you mind telling me what IC50 value was observed for CN(C)CC1(C)CCN(c2ccc(C(F)(F)F)cc2NC(=O)c2ccc(C3CCOCC3)o2)CC1 ?
24300

Would you mind telling me what IC50 value was observed for CC1(O)CCCN(c2ccc(C(F)(F)F)cc2NC(=O)c2ccc(C3CCOCC3)o2)CC1 (racemic) ?
8450

Would you mind telling me what IC50 value was observed for O=C(Nc1cc(C(F)(F)F)ccc1N1CCCC(O)CC1)c1ccc(-c2ccncc2)o1 (racemic) ?
11200

Would you mind telling me what IC50 value was observed for O=C(Nc1cc(C(F)(F)F)ccc1N1CCC(O)(CC2CC2)CC1)c1ccc(C2CCOCC2)o1 ?
220

Would you mind telling me what IC50 value was observed for CC1(C(=O)N2CCCCC2)CCN(c2ccc(C(F)(F)F)cc2NC(=O)c2ccc(C3CCOCC3)o2)CC1 ?
2500

Would you mind telling me what IC50 value was observed for O=C(Nc1cc(C2CC2)ccc1N1CCC(O)(CC2CC2)CC1)c1ccc(C2CCOCC2)o1 ?
5420

Would you mind telling me what IC50 value was observed for CC1(CN)CCN(c2ccc(C(F)(F)F)cc2NC(=O)c2ccc(C3CCOCC3)o2)CC1 ?
23000

Would you mind telling me what IC50 value was observed for COC1(C)CCN(c2ccc(C(F)(F)F)cc2NC(=O)c2ccc(C3CCOCC3)o2)CC1 ?
5160

Would you mind telling me what IC50 value was observed for CC1(O)CCN(c2ccc(C(F)F)cc2NC(=O)c2ccc(-c3ccncc3)o2)CC1 ?
600

Would you mind telling me what IC50 value was observed for O=C(Nc1cc(Cl)ccc1N1CCCC(O)CC1)c1ccc(C2CCOCC2)o1 (racemic) ?
10300

Would you mind telling me what IC50 value was observed for O=C(Nc1cc(C(F)(F)F)ccc1N1CCN(Cc2ccco2)CC1)c1ccc(-c2ccncc2)o1 [Reference Example 2, reference compound] ?
610

Would you mind telling me what IC50 value was observed for CNC(=O)C1(C)CCN(c2ccc(C(F)(F)F)cc2NC(=O)c2ccc(C3CCOCC3)o2)CC1 ?
1700

* * *

- Tested target: CYP2C19 (Homo sapiens, UniProt P33261)
- Construct: from tissue; host or cells: human liver microsomes
- Sequence (P33261 whole entry): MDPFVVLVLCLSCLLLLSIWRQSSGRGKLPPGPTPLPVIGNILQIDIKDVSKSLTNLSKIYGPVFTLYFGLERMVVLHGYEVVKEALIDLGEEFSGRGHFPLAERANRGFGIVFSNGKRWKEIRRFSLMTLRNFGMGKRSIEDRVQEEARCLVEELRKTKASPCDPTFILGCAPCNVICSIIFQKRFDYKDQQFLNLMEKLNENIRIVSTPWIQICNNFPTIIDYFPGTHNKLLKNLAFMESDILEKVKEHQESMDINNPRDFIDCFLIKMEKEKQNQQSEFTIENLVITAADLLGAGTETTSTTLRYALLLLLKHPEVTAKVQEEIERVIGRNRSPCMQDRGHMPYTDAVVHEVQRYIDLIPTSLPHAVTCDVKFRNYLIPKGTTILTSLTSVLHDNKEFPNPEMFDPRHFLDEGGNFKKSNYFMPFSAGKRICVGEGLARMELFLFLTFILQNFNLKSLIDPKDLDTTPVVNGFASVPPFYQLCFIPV
- Test name: CYP inhibition assay, human liver microsomes, substrate S-mephenytoin
- Format: in vitro ADME
- Details: human liver microsomes, 10 min incubation, LC-MS/MS; read-out: CYP Inhibition Activity (IC50/nM) CYP2C19
Define the label as y when IC50 is strictly less than 10000 nM and as n in all remaining cases.

hey, is IC50 for CC1(O)CCN(c2ccc(C3CC3)cc2NC(=O)c2ccc(C3CCOCC3)o2)CC1 lower than 10000 nM or not?
y

hey, is IC50 for CN1CCC2(CCN(c3ccc(C(F)(F)F)cc3NC(=O)c3ccc(C4CCOCC4)o3)CC2)C1=O lower than 10000 nM or not?
y

hey, is IC50 for CC1(O)CCN(c2ccc(C3CC3)cc2NC(=O)c2ccc(-c3ccncc3)o2)CC1 lower than 10000 nM or not?
y

hey, is IC50 for CN(C)CC1(C)CCN(c2ccc(C3CC3)cc2NC(=O)c2ccc(C3CCOCC3)o2)CC1 lower than 10000 nM or not?
n

hey, is IC50 for O=C(Nc1cc(C2CC2)ccc1N1CCCC(O)CC1)c1ccc(-c2ccncc2)o1 (racemic) lower than 10000 nM or not?
y

hey, is IC50 for CC1(C(N)=O)CCN(c2ccc(C(F)(F)F)cc2NC(=O)c2ccc(C3CCOCC3)o2)CC1 lower than 10000 nM or not?
n

hey, is IC50 for Cc1ccc(N2CCC(C)(C(=O)N(C)C)CC2)c(NC(=O)c2ccc(C3CCOCC3)o2)c1 lower than 10000 nM or not?
n

hey, is IC50 for CC1(O)CCN(c2ccc(OC(F)(F)F)cc2NC(=O)c2ccc(C3CCOCC3)o2)CC1 lower than 10000 nM or not?
y

hey, is IC50 for CC1(O)CCN(c2ccc(C(F)F)cc2NC(=O)c2ccc(C3CCOCC3)o2)CC1 lower than 10000 nM or not?
y

hey, is IC50 for Cc1ccc(N2CCC(C)(O)CC2)c(NC(=O)c2ccc(C3CCOCC3)o2)c1 lower than 10000 nM or not?
n

hey, is IC50 for CC1(CO)CCN(c2ccc(C(F)(F)F)cc2NC(=O)c2ccc(-c3ccncc3)o2)CC1 lower than 10000 nM or not?
n

hey, is IC50 for Cc1ccc(N2CCC(C)(CO)CC2)c(NC(=O)c2ccc(C3CCOCC3)o2)c1 lower than 10000 nM or not?
n

hey, is IC50 for O=C(Nc1cc(C(F)(F)F)ccc1N1CCC(O)(CC2CC2)CC1)c1ccc(C2CCOCC2)o1 lower than 10000 nM or not?
y

hey, is IC50 for CC1(O)CCCN(c2ccc(C(F)(F)F)cc2NC(=O)c2ccc(C3CCOCC3)o2)CC1 (racemic) lower than 10000 nM or not?
n

hey, is IC50 for Cc1ccc(N2CCC(C)(C)CC2)c(NC(=O)c2ccc(C3CCOCC3)o2)c1 lower than 10000 nM or not?
n

hey, is IC50 for CC1(CN2CCCCC2)CCN(c2ccc(C(F)(F)F)cc2NC(=O)c2ccc(C3CCOCC3)o2)CC1 lower than 10000 nM or not?
n
